The measurements presented in this section are drawn from paper PMC7587396.

# TARGET SYSTEM: 5-LO (Homo sapiens)
# Sequence (P09917 whole entry): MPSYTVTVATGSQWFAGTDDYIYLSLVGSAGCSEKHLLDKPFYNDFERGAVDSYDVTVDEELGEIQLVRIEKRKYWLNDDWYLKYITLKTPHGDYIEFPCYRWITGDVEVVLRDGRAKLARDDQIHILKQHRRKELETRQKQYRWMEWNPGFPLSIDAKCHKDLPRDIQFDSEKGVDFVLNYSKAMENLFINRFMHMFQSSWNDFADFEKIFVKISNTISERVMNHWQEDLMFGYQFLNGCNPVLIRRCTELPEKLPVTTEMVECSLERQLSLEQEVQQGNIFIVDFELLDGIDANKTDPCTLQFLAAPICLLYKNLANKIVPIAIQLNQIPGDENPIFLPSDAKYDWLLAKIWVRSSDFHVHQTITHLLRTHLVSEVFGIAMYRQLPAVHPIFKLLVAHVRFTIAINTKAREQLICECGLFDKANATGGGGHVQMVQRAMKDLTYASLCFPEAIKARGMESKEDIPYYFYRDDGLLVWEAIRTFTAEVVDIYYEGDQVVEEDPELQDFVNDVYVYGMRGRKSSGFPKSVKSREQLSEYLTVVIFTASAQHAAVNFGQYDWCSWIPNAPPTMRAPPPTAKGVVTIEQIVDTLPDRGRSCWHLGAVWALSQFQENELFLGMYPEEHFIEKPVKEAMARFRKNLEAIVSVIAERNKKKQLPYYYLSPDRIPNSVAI
# MEASUREMENT DESCRIPTION: 5-LO products biosynthesis assay in human PMNL cells
# Assay type: cell-based
# Set-up: 5-LO is highly expressed in PMNL; endogenous in cells; host or cells: human PMNL from peripheral blood of healthy volunteers
# ASSAY CONTEXT: 95% confidence interval: 0.25–0.53 μM; read-out: IC50 for the inhibition of 5-LO product biosynthesis in PMNL
ASSAY ENDPOINT: IC50 (nM)
Output spec: scalar in nM, unitless text.

## Input Return IC50 (reported value) for this compound: `COc1cc(/C=C/C(=O)c2cc3ccccc3s2)cc(OC)c1O`
## Output 370
